The reported measurements were obtained from patent US20190315864A1.

Biological target: T1, CTLA4-Fc fusion protein (human, biotinylated where used as CTLA4-Fc-Biotin (Examples 5.1-5.3))
T1 construct: expressed in HEK293 cells; also called human CTLA4-Fc protein; CTLA4-Fc antigen protein
Assay: competitive ELISA, CTLA4-Fc coated, VHH series with 250 ng/mL CD80-Fc-Biotin

binder	IC50
CTLA4 heavy chain single domain antibody No. 145 (VHH, Camel VHH expressed in E. coli (PET32b), nickel-purified) VHH: QVQLQESGGGSVQAGGSLRLSCAASGYTYSSYSMGWFRQAAGKEREGVAAIDSDGSTSYADSVKGRFTISQDNAKNTLYLQMNSLEPEDTAMYYCAATAGWYAARHALSPLFFGYWGQGTQVTVSS	~1.95 µg/mL
CTLA4 heavy chain single domain antibody No. C1 (VHH, Camel VHH expressed in E. coli (PET32b), nickel-purified, detected by anti-His tag antibody) VHH: QVQLQESGGGSVQAGGSLGLSCAASGYIYSAYCMGWFRQAPGKEREGVAAIYLGGGSTYYADSVKGRFTISQDIAKNTLYLQMNSLKPEDTAMYSCAADVIPTETCLGGSWSGPFGYWGQGTQVTVSS	0.852 µg/mL
CTLA4 heavy chain single domain antibody No. 155 (VHH, Camel VHH expressed in E. coli (PET32b), nickel-purified) VHH: QVQLQESGGGPVQAGGSLRLSCAVSKYPYSGSCMGWFRQAPGKEREGVAAMFTGTGSTYYADSVKGRFTISQNVAKNTLDLQMNSLKPEDTAMYYCAVDLLPRSTRCLDYGLRTYNYWGQGTQVTVSS	~4.69 µg/mL
CTLA4 heavy chain single domain antibody No. C27 (VHH, Camel VHH expressed in E. coli (PET32b), nickel-purified) VHH: QVQLQESGGGSVQAGGSLRLSCAASGYIYSAYCMGWFRQAPGKERVGVAAISIGGGSTYYADSVKGRFTISQDNAKNTLYLQMNSLKPEDTAMYYCAADVIPTETCLGGSWSGPFGYWGQGTQVTVSS	~0.731 µg/mL
